ASSAY_METHOD_TEXT: inducers of MIN6 beta-cell proliferation, primary screen, ATP luminescence, uHTS (AID 2380);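 also: 0% = DMSO-treated cells in low-serum medium and 100% = 10% serum control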
DETAILS: MIN6 cells proliferation, ATPlite luminescence, 48 h; at 10 µM; active compounds read high; 100% = growth in 10% serum; cells starved in 0.2% serum
Out of some 330,000 compounds screened, about 960 (0.29%) were called active. What follows is part of a selection rich in actives, with near analogues and random picks from the rest.
Each entry below carries its recorded proliferation.

{"COMPOUND": "COc1cccc(CNC(=O)CCC2CCCN(C(=O)c3ccc(F)c(Cl)c3)C2)c1 (stereo not given)", "proliferation / %": -1.84}
{"COMPOUND": "Cc1c(C(=O)NCCN(C)C)oc2ccc(S(=O)(=O)N3CCCC3)cc12", "proliferation / %": 0}
{"COMPOUND": "Cc1cccn2c(=O)c3cc(C(=O)NCCN4CCOCC4)c(=N)n(Cc4cccnc4)c3nc12", "proliferation / %": -6.51}
{"COMPOUND": "COC(=O)COc1ccc(S(=O)(=O)N2CCOCC2)cc1", "proliferation / %": -2.03}
{"COMPOUND": "COc1ccccc1OCc1ccc(C(=O)N2CCN(C)CC2)o1", "proliferation / %": 7.74}
{"COMPOUND": "Cc1nn(C(C)C(=O)NCCC2=CCCCC2)c(=O)c2nn(-c3ccccc3)c(C)c12 (stereo not given)", "proliferation / %": 11.7}
{"COMPOUND": "Cc1ccc2c(c1)N(S(=O)(=O)c1cc(-c3cc(C)no3)ccc1C)CCO2", "proliferation / %": -6.66}
{"COMPOUND": "CCCCn1c(N)c(N(CC)C(=O)/C=C/c2ccco2)c(=O)[nH]c1=O", "proliferation / %": -1.59}
{"COMPOUND": "CN(Cc1ccc(F)cc1Cl)S(=O)(=O)c1cccs1", "proliferation / %": 5.5}
{"COMPOUND": "COc1cccc(CNC(=O)CCC2CCCN(C(=O)c3cc(C)[nH]n3)C2)c1 (stereo not given)", "proliferation / %": 0.78}
{"COMPOUND": "CN(Cc1c(F)cccc1Cl)S(=O)(=O)c1cccs1", "proliferation / %": 0}
{"COMPOUND": "COc1ccc(CCn2c(=N)c(C(=O)NCc3ccco3)cc3c(=O)n4cccc(C)c4nc32)cc1", "proliferation / %": 10.3}
{"COMPOUND": "c1ccc(C[C@H]2CNCCN2CCC23CC4CC(CC(C4)C2)C3)cc1", "proliferation / %": -8}
{"COMPOUND": "O=C(CC1CCCCC1)NCc1ccc(F)cc1", "proliferation / %": -3.62}
{"COMPOUND": "CC1(C)SC2c3ccccc3C(=O)N2[C@@H]1C(=O)NCc1ccco1 (stereo not given in full)", "proliferation / %": 0.14}
